# Read-out: sulfotransferase (SULT2A), SULT2A1 (gene 6822)
# protocol_details: CLD_SULT2A_6hr: CellzDirect (CLD) Gene Expression Assay for sulfotransferase (SULT2A) at 6 hours (AID 2283669);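 also: hits raise transcript level above the DMSO vehicle baseline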
Records with an inconclusive call do not appear. Activity calls are given as the source filed them. The calls were made as follows: active = hit-call score of the fitted dose curve at least 0.9, where 1 is the maximum; inconclusive = response in the unintended direction; inactive = score below 0.9.
// one of active, inactive, no free text

These solved cases illustrate the format of a correct answer.
compound	group_label
CSc1nnc(C(C)(C)C)c(=O)n1N	inactive
CC(C1CC1)C(O)(Cn1cncn1)c1ccc(Cl)cc1 (stereo unspecified)	inactive
CC1=NNC(=O)N(/N=C/c2cccnc2)C1	inactive

I'd appreciate the recorded outcome for O=[N+]([O-])c1cc(C(F)(F)F)c(Cl)c([N+](=O)[O-])c1Nc1ncc(C(F)(F)F)cc1Cl from this test. inactive

Next up: CC(C)[C@H](C(=O)O[C@H](C#N)c1cccc(Oc2ccccc2)c1)c1ccc(Cl)cc1 inactive

Next up: O=C(O)c1cc(Oc2ccc(C(F)(F)F)cc2Cl)ccc1[N+](=O)[O-] active

Next up: CCOC(=O)COc1cc(-c2nn(C)c(OC(F)F)c2Cl)c(F)cc1Cl inactive

Next up: CNC(=O)ON=C(C)SC inactive

---

# Read-out: CYP3A5 (gene 1577)
# protocol_details: LTEA_HepaRG_CYP3A5: Life Technologies and Expression Analysis (LTEA) Assay for CYP3A5 using HepaRG (AID 2283493)
# condition_info: mRNA level, 48 h; actives raise or lower the signal
The source made the active and inactive calls. How the source made its calls: active means hit-call score of the fitted dose curve at least 0.9, where 1 is the maximum; inactive means score below 0.9.
// one of 1 for active, -1 for inactive, no free text

These solved cases illustrate the format of a correct answer.
molecule	group_label
CC(Oc1cccc(Cl)c1)C(=O)O (centres undefined)	-1
COP(=O)(OC)SCn1c(=O)oc2cc(Cl)cnc21	1
CCOP(=S)(OCC)SCCSCC	-1

I'd appreciate the recorded outcome for CON=C(C(=O)OC)c1ccccc1CON=C(C)c1cccc(C(F)(F)F)c1 from this test. 1

Next up: CCNc1nc(Cl)nc(NC(C)(C)C#N)n1 -1

Next up: CCC(=O)Nc1ccc(Cl)c(Cl)c1 -1

Next up: Cc1cc(C2CC2)nc(Nc2ccccc2)n1 -1

Next up: CSc1nnc(C(C)(C)C)c(=O)n1N -1

Next up: FC(F)C(F)(F)OCC(Cn1cncn1)c1ccc(Cl)cc1Cl (centres undefined) 1

Next up: CSc1nc(NC(C)C)nc(NC(C)C)n1 -1

Next up: CCOP(=O)(SC(C)CC)N1CCSC1=O (centres undefined) -1

Next up: Nc1nc(N)nc(NC2CC2)n1 -1

Next up: CC1=NNC(=O)N(/N=C/c2cccnc2)C1 -1

Next up: CCCSP(=O)(OCC)Oc1ccc(Br)cc1Cl (centres undefined) -1

---

# Read-out: Paternally Expressed 10 (PEG10), PEG10 (gene 23089)
# protocol_details: LTEA_HepaRG_PEG10: Life Technologies and Expression Analysis (LTEA) Assay for Paternally Expressed 10 (PEG10) using HepaRG (AID 2283520)
# condition_info: mRNA level, 48 h; actives raise or lower the signal
# Method: LTEA_HepaRG is a cell based, multiplexed-readout assay that uses HepaRG, a human liver cell line, with measurements taken at 48 hours after chemical dosing on a 96-well plate.LTEA_HepaRG_PEG10 is one of 102 assay component(s) measured in the LTEA HepaRG cell culture assay. It is a marker of Cell proliferation, survival, death.Data from the assay component LTEA_HepaRG_PEG10 was analyzed into 1 endpoint. […]
Calls of active or inactive are those of the source. Rule for the calls: active = hit-call score of the fitted dose curve at least 0.9, where 1 is the maximum; inactive = score below 0.9.
// one of active, inactive, no free text

These solved cases illustrate the format of a correct answer.
compound	group_label
CC(COc1ccc(Oc2ccccc2)cc1)Oc1ccccn1 (stereo not drawn)	inactive
CN(C)[C@@H]1C(=O)C(C(N)=O)=C(O)[C@@]2(O)C(=O)C3=C(O)c4c(O)cccc4[C@@](C)(O)[C@H]3[C@H](O)[C@@H]12	inactive
Cc1nn(-c2cc(NS(C)(=O)=O)c(Cl)cc2Cl)c(=O)n1C(F)F	inactive
CC1=NNC(=O)N(/N=C/c2cccnc2)C1	inactive
CC(C)[C@H](C(=O)O[C@H](C#N)c1cccc(Oc2ccccc2)c1)c1ccc(Cl)cc1	active

Then there is this compound:
I'd appreciate the recorded outcome for CN1COCN(Cc2cnc(Cl)s2)C1=N[N+](=O)[O-] from this test. inactive
